From: paper PMC5653438

# Measurement Target: PfLipL1 (Plasmodium falciparum)
# Sequence (Q8IEG9 19-408): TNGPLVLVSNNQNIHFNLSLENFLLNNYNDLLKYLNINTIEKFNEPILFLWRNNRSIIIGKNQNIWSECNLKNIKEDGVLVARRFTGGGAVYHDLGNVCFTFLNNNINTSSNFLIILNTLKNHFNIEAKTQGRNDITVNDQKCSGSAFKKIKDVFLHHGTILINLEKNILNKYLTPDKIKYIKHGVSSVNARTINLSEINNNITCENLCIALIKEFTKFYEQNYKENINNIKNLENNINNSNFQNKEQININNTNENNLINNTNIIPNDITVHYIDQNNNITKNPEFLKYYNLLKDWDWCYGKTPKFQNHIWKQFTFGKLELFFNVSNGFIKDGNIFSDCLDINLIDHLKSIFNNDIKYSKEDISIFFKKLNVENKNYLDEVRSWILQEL
# Method Summary: biochemical
# Format: binding
# Condition Details: KD TSA, reducing conditions, + TCEP (5 mM); Kd calculated at 37 °C
Please provide measured pKd for the entries that follow.
// returns pKd (minus log10 of molar concentration), number only

## Task Under PfLipL1 (Plasmodium falciparum), report pKd for Nc1ncnc2c1ncn2[C@@H]1O[C@H](COP(=O)(O)OC(=O)CCCC[C@@H](S)CCS)[C@@H](O)[C@H]1O [Lipoyl-AMP + TCEP, dihydrolipoyl-AMP]
## Result 5.24

## Task Under PfLipL1 (Plasmodium falciparum), report pKd for O=C(O)CCCCC(Cl)CCCl (stereo not shown) [6,8-diClO, 6,8-dichlorooctanoate]
## Result 4.74

## Task Under PfLipL1 (Plasmodium falciparum), report pKd for O=C(O)CCCC[C@@H](S)CCS (racemic) [Lipoate + TCEP, dihydrolipoate]
## Result 4.03

## Task Under PfLipL1 (Plasmodium falciparum), report pKd for Nc1ncnc2c1ncn2[C@@H]1O[C@H](COP(=O)(O)OC(=O)CCCCC(Cl)CCCl)[C@@H](O)[C@H]1O (stereo partly shown) [6,8-diClO-AMP]
## Result 6.60

---

# Measurement Target: PfLipL1 (Plasmodium falciparum)
# Method Summary: biochemical
# Type: binding
# Condition Details: KD ITC, reducing conditions, + TCEP
Reported Metric: Kd (nM)
Value expressed in nM; do not type the unit.

## Task Return Kd for the following compound: Nc1ncnc2c1ncn2[C@@H]1O[C@H](COP(=O)(O)OC(=O)CCCCC(Cl)CCCl)[C@@H](O)[C@H]1O (stereo partly shown)
## Result 500
